System: Trypanosoma cruzi
testDetails: Compound was tested for the inhibition of Trypanosoma cruzi epimastigote growth after 72 hours of treatment
Assay type: functional, organism-based
conditionLabel: read-out: IC50
Sorting guide: entries reporting IC50 beneath 7 µM go in the Criterion met pile, the rest go in the Criterion not met pile.

compound	classLabel
CC[C@@H]1NC(=O)[C@H]([C@H](O)C(C)CCCc2ccccc2)N(C)C(=O)[C@H](C(C)C)N(C)C(=O)[C@H](CC(C)C)N(C)C(=O)[C@H](CC(C)C)N(C)C(=O)[C@@H](C)NC(=O)[C@H](C)NC(=O)[C@H](CC(C)C)N(C)C(=O)[C@H](C(C)C)NC(=O)[C@H](CC(C)C)N(C)C(=O)CN(C)C1=O (stereo partly drawn)	Criterion met
CCC/C=C(/C)[C@@H](O)[C@H]1C(=O)N[C@@H](CC)C(=O)N(C)CC(=O)N(C)[C@@H](CC(C)CO)C(=O)N[C@@H](C(C)C)C(=O)N(C)[C@@H](CC(C)C)C(=O)N[C@@H](C)C(=O)N[C@H](C)C(=O)N(C)[C@@H](CC(C)C)C(=O)N(C)[C@@H](CC(C)C)C(=O)N(C)[C@@H](C(C)C)C(=O)N1C (stereo partly drawn)	Criterion not met
CC[C@@H]1NC(=O)[C@H]([C@H](O)/C(C)=C\CCCN=[N+]=[N-])N(C)C(=O)[C@H](C(C)C)N(C)C(=O)[C@H](CC(C)C)N(C)C(=O)[C@H](CC(C)C)N(C)C(=O)[C@@H](C)NC(=O)[C@H](C)NC(=O)[C@H](CC(C)C)N(C)C(=O)[C@H](C(C)C)NC(=O)[C@H](CC(C)C)N(C)C(=O)CN(C)C1=O	Criterion not met
CC[C@@H]1NC(=O)[C@H]([C@H](O)C(C)C/C=C/c2ccccc2)N(C)C(=O)[C@H](C(C)C)N(C)C(=O)[C@H](CC(C)C)N(C)C(=O)[C@H](CC(C)C)N(C)C(=O)[C@@H](C)NC(=O)[C@H](C)NC(=O)[C@H](CC(C)C)N(C)C(=O)[C@H](C(C)C)NC(=O)[C@H](CC(C)C)N(C)C(=O)CN(C)C1=O (stereo partly drawn)	Criterion met
CC[C@@H]1NC(=O)[C@H]([C@H](O)/C(C)=C\CCCOC)N(C)C(=O)[C@H](C(C)C)N(C)C(=O)[C@H](CC(C)C)N(C)C(=O)[C@H](CC(C)C)N(C)C(=O)[C@@H](C)NC(=O)[C@H](C)NC(=O)[C@H](CC(C)C)N(C)C(=O)[C@H](C(C)C)NC(=O)[C@H](CC(C)C)N(C)C(=O)CN(C)C1=O	Criterion not met
CCC/C=C(/C)[C@@H](O)[C@H]1C(=O)N[C@@H]([C@@H](C)OCCCO)C(=O)N(C)CC(=O)N(C)[C@@H](CC(C)C)C(=O)N[C@@H](C(C)C)C(=O)N(C)[C@@H](CC(C)C)C(=O)N[C@@H](C)C(=O)N[C@H](C)C(=O)N(C)[C@@H](CC(C)C)C(=O)N(C)[C@@H](CC(C)C)C(=O)N(C)[C@@H](C(C)C)C(=O)N1C	Criterion not met
CC[C@@H]1NC(=O)[C@H]([C@H](O)/C(C)=C\CCC(=O)OC(C)C)N(C)C(=O)[C@H](C(C)C)N(C)C(=O)[C@H](CC(C)C)N(C)C(=O)[C@H](CC(C)C)N(C)C(=O)[C@@H](C)NC(=O)[C@H](C)NC(=O)[C@H](CC(C)C)N(C)C(=O)[C@H](C(C)C)NC(=O)[C@H](CC(C)C)N(C)C(=O)CN(C)C1=O	Criterion not met
